- Test system: Rattus norvegicus
- test-protocol: In vivo effect on heart rate of anesthetized rats following 3 mg/kg i.v.
- Assay type: functional
- cond: route intravenous
API: label(entry) gives Y if the entry's Change is strictly smaller than -30%; on equality or larger values it gives N.

Query: I'd appreciate it if you could check whether COc1cc2c(cc1OC)C(=O)N(C1CCCN(CCCOc3ccc4c(c3)OCO4)C1)CC2.Cl (stereo not given) has Change smaller than -30%.
Result: Y

Query: I'd appreciate it if you could check whether COc1ccc(CCN(C)CCCN2CCc3cc(OC)c(OC)cc3CC2=O)cc1OC.Cl [ZATEBRADINE HYDROCHLORIDE] has Change smaller than -30%.
Result: Y

Query: I'd appreciate it if you could check whether COc1cc2c(cc1OC)C(=O)N(C1CCCN(CCCOc3ccc4c(c3)OCCO4)C1)CC2.Cl (stereo not given) has Change smaller than -30%.
Result: Y

Query: I'd appreciate it if you could check whether COc1cc2c(cc1OC)C(=O)N(C1CCCN(CCCOc3ccc(Cl)cc3)C1)CC2.Cl (stereo not given) has Change smaller than -30%.
Result: Y

Query: I'd appreciate it if you could check whether COc1ccc(C(=O)NC2CCCN(CCCOc3ccc4c(c3)OCO4)C2)cc1OC.Cl (stereo not given) has Change smaller than -30%.
Result: N

Query: I'd appreciate it if you could check whether COc1cc2c(cc1OC)C(=O)N(C1CCCN(CCCOc3ccc(C#N)cc3)C1)CC2.Cl (stereo not given) has Change smaller than -30%.
Result: N

Query: I'd appreciate it if you could check whether COc1cc2c(cc1OC)C(=O)N(C1CCCN(CCCOc3ccc(F)cc3)C1)CC2.Cl (stereo not given) has Change smaller than -30%.
Result: Y

Query: I'd appreciate it if you could check whether COc1cccc(OCCCN2CCCC(N3CCc4cc(OC)c(OC)cc4C3=O)C2)c1.Cl (stereo not given) has Change smaller than -30%.
Result: Y

Query: I'd appreciate it if you could check whether COc1cc2c(cc1OC)CN(C1CCCN(CCCOc3ccc4c(c3)OCO4)C1)CC2.Cl (stereo not given) has Change smaller than -30%.
Result: Y

Query: I'd appreciate it if you could check whether COc1cc2c(cc1OC)C(=O)N(C1CCCN(CCCOc3ccc(C)cc3)C1)CC2.Cl (stereo not given) has Change smaller than -30%.
Result: Y

Query: I'd appreciate it if you could check whether CCOc1ccc(OCCCN2CCCC(N3CCc4cc(OC)c(OC)cc4C3=O)C2)cc1.Cl (stereo not given) has Change smaller than -30%.
Result: Y

Query: I'd appreciate it if you could check whether COc1cc2c(cc1OC)C(=O)N(C1CCCN(CCCOc3ccc([N+](=O)[O-])cc3)C1)CC2.Cl (stereo not given) has Change smaller than -30%.
Result: N

Query: I'd appreciate it if you could check whether COc1cc2ncn(C3CCCN(CCCOc4ccc5c(c4)OCO5)C3)c(=O)c2cc1OC.Cl (stereo not given) has Change smaller than -30%.
Result: Y

Query: I'd appreciate it if you could check whether COc1cc2c(cc1OC)C(=O)N(C1CCCN(CCCOc3ccccc3)C1)CC2.Cl (stereo not given) has Change smaller than -30%.
Result: Y

Query: I'd appreciate it if you could check whether COc1ccc(OCCCN2CCCC(N3CCc4cc(OC)c(OC)cc4C3=O)C2)cc1OC.Cl (stereo not given) has Change smaller than -30%.
Result: Y

Query: I'd appreciate it if you could check whether COc1cc2c(cc1OC)C(=O)N([C@@H]1CCCN(CCCOc3ccc4c(c3)OCO4)C1)CC2.Cl has Change smaller than -30%.
Result: Y

Query: I'd appreciate it if you could check whether COc1cc2c(cc1OC)C(=O)N([C@H]1CCCN(CCCOc3ccc4c(c3)OCO4)C1)CC2.Cl has Change smaller than -30%.
Result: Y

Query: I'd appreciate it if you could check whether COc1cc2ccn(C3CCCN(CCCOc4ccc5c(c4)OCO5)C3)c(=O)c2cc1OC.Cl (stereo not given) has Change smaller than -30%.
Result: N

Query: I'd appreciate it if you could check whether COc1ccc(OCCCN2CCCC(N3CCc4cc(OC)c(OC)cc4C3=O)C2)cc1.Cl (stereo not given) has Change smaller than -30%.
Result: Y
